// reported zone of inhibition at 25 µg/mL for each item listed
system: Pseudomonas aeruginosa; assay: Antimicrobial activity against Pseudomonas aeruginosa at 25 ug/ml by agar plate diffusion technique; type: functional; conditions: read-out: IZ
Output spec: scalar in mm, unitless text.

Challenge: For the molecule CCOC(=O)c1cnn(-c2nc(-c3cccc(OC)c3OC)c(C#N)c(=O)n2C)c1N , give its measured zone of inhibition at 25 µg/mL value.
Response given: 9.9

Challenge: For the molecule COc1ccc(-c2nc(SC)n(C)c(=O)c2C#N)cc1 , give its measured zone of inhibition at 25 µg/mL value.
Response given: 6.19

Challenge: For the molecule CCOC(=O)c1cnn(-c2nc(-c3cccc(O)c3O)c(C#N)c(=O)n2C)c1N , give its measured zone of inhibition at 25 µg/mL value.
Response given: 10.3

Challenge: For the molecule Cn1c(NN)nc(-c2cccc(O)c2O)c(C#N)c1=O , give its measured zone of inhibition at 25 µg/mL value.
Response given: 8.1

Challenge: For the molecule CCOC(=O)c1cnn(-c2nc(-c3ccco3)c(C#N)c(=O)n2C)c1N , give its measured zone of inhibition at 25 µg/mL value.
Response given: 9.19

* * *

tested on: Metaphire posthuma; assay: Anthelmintic activity against Pheretima posthuma assessed as time taken for complete parasite paralysis at 0.2% w/v; assay type: functional
Categories are assigned from the measured Time using these intervals: L: < 40 min; M: ≥ 40 min and < 50 min; H: ≥ 50 min

Challenge: Form: Item = CCOC(=O)c1cnn(-c2nc(-c3ccco3)c(C#N)c(=O)n2C)c1N ; Class = ?
Response given: M

Challenge: Form: Item = COc1cccc(-c2nc(NN)n(C)c(=O)c2C#N)c1OC ; Class = ?
Response given: H

Challenge: Form: Item = Cn1c(NN)nc(-c2cccs2)c(C#N)c1=O ; Class = ?
Response given: L

Challenge: Form: Item = CCCSc1ccc2[nH]c(NC(=O)OC)nc2c1 ; Class = ?
Response given: L

Challenge: Form: Item = CCOC(=O)c1cnn(-c2nc(-c3cccc(O)c3O)c(C#N)c(=O)n2C)c1N ; Class = ?
Response given: H

Challenge: Form: Item = CSc1nc(-c2cccc(O)c2O)c(C#N)c(=O)n1C ; Class = ?
Response given: H

* * *

test system: Candida albicans; assay: Antimicrobial activity against Candida albicans at 100 ug/ml by paper disc method; type: functional; conditions: read-out: IZ
measurementType: zone of inhibition at 100 µg/mL
Your answer should be a number followed by the unit of measure.

| compound | measurementType | result |
| --- | --- | --- |
| CSc1nc(-c2cccs2)c(C#N)c(=O)n1C | zone of inhibition at 100 µg/mL | 21.8 mm |
| C[C@@H]1[C@H](O)[C@@H](C)/C=C/C=C/C=C/C=C/C=C/C=C/C=C/[C@H](O[C@@H]2O[C@H](C)[C@@H](O)[C@H](N)[C@@H]2O)C[C@@H]2O[C@](O)(C[C@@H](O)C[C@@H](O)[C@H](O)CC[C@@H](O)C[C@@H](O)CC(=O)O[C@H]1C)C[C@H](O)[C@H]2C(=O)O [AMPHOTERICIN B] | zone of inhibition at 100 µg/mL | 23.1 mm |
| CSc1nc(-c2cccc(O)c2O)c(C#N)c(=O)n1C | zone of inhibition at 100 µg/mL | 21 mm |

Challenge: For the compound COc1ccc(-c2nc(NN)n(C)c(=O)c2C#N)cc1 , give its measured zone of inhibition at 100 µg/mL value.
Response given: 15.8 mm

Challenge: For the compound CSc1nc(-c2ccc(N(C)C)cc2)c(C#N)c(=O)n1C , give its measured zone of inhibition at 100 µg/mL value.
Response given: 17.9 mm

Challenge: For the compound Cn1c(NN)nc(-c2ccccc2Cl)c(C#N)c1=O , give its measured zone of inhibition at 100 µg/mL value.
Response given: 21.4 mm

* * *

system: Metaphire posthuma; experiment: Anthelmintic activity against Pheretima posthuma assessed as time taken for complete parasite paralysis at 0.2% w/v; format: functional
measurementType: Time (min)
Output spec: scalar in min, unitless text.

Check out these entries, answers already filled in.
| sampleSmiles | systemUnderTest | Time (min) |
| --- | --- | --- |
| CCOC(=O)c1cnn(-c2nc(-c3ccc(N(C)C)cc3)c(C#N)c(=O)n2C)c1N | Metaphire posthuma | 46.58 |
| COc1cccc(-c2nc(SC)n(C)c(=O)c2C#N)c1OC | Metaphire posthuma | 57.18 |
| CSc1nc(-c2ccccc2F)c(C#N)c(=O)n1C | Metaphire posthuma | 71.4 |
| CCOC(=O)c1cnn(-c2nc(-c3ccccc3Cl)c(C#N)c(=O)n2C)c1N | Metaphire posthuma | 42.05 |
| CCOC(=O)c1cnn(-c2nc(-c3cccs3)c(C#N)c(=O)n2C)c1N | Metaphire posthuma | 40.12 |
| CSc1nc(-c2ccc(N(C)C)cc2)c(C#N)c(=O)n1C | Metaphire posthuma | 44.52 |

Challenge: For the compound Cn1c(NN)nc(-c2ccc(Cl)cc2)c(C#N)c1=O , give its measured Time value.
Response given: 40.13

Challenge: For the compound CSc1nc(-c2cccs2)c(C#N)c(=O)n1C , give its measured Time value.
Response given: 38.48

Challenge: For the compound Cn1c(NN)nc(-c2ccccc2O)c(C#N)c1=O , give its measured Time value.
Response given: 33.85

Challenge: For the compound COc1ccc(-c2nc(NN)n(C)c(=O)c2C#N)cc1 , give its measured Time value.
Response given: 45.23

Challenge: For the compound CN(C)c1ccc(-c2nc(NN)n(C)c(=O)c2C#N)cc1 , give its measured Time value.
Response given: 26.35

* * *

test system: Metaphire posthuma; test: Anthelmintic activity against Pheretima posthuma assessed as time taken for parasite death at 0.1% w/v; assay type: functional
measurementType: Time (min)
Output spec: scalar in min, unitless text.

Check out these entries, answers already filled in.
| sampleSmiles | systemUnderTest | measurementType | readoutNumber |
| --- | --- | --- | --- |
| CCOC(=O)c1cnn(-c2nc(-c3cccc(OC)c3OC)c(C#N)c(=O)n2C)c1N | Metaphire posthuma | Time | 87.55 |
| CCOC(=O)c1cnn(-c2nc(-c3ccc(OC)cc3)c(C#N)c(=O)n2C)c1N | Metaphire posthuma | Time | 67.41 |
| CN(C)c1ccc(-c2nc(NN)n(C)c(=O)c2C#N)cc1 | Metaphire posthuma | Time | 54.22 |
| CCOC(=O)c1cnn(-c2nc(-c3ccccc3O)c(C#N)c(=O)n2C)c1N | Metaphire posthuma | Time | 55.2 |
| CSc1nc(-c2cccs2)c(C#N)c(=O)n1C | Metaphire posthuma | Time | 45.24 |

Challenge: Consider the compound CSc1nc(-c2ccc(N(C)C)cc2)c(C#N)c(=O)n1C tested on Metaphire posthuma; state its Time.
Response given: 47.57

Challenge: Consider the compound CSc1nc(-c2cccc(O)c2O)c(C#N)c(=O)n1C tested on Metaphire posthuma; state its Time.
Response given: 65.29

Challenge: Consider the compound COc1cccc(-c2nc(NN)n(C)c(=O)c2C#N)c1OC tested on Metaphire posthuma; state its Time.
Response given: 71.45

* * *

// reported Time for each item listed
tested on: Metaphire posthuma; experiment: Anthelmintic activity against Pheretima posthuma assessed as time taken for complete parasite paralysis at 0.5% w/v; format: functional
Your answer should be a number followed by the unit of measure.

Check out these entries, answers already filled in.
| sampleSmiles | Time |
| --- | --- |
| COc1cccc(-c2nc(SC)n(C)c(=O)c2C#N)c1OC | 41.47 min |
| CCOC(=O)c1cnn(-c2nc(-c3ccco3)c(C#N)c(=O)n2C)c1N | 45.98 min |
| CCOC(=O)c1cnn(-c2nc(-c3ccccc3Cl)c(C#N)c(=O)n2C)c1N | 46.18 min |
| CSc1nc(-c2ccco2)c(C#N)c(=O)n1C | 32.55 min |

Challenge: Consider the compound CSc1nc(-c2ccccc2F)c(C#N)c(=O)n1C tested on Metaphire posthuma; state its Time.
Response given: 55.17 min

Challenge: Consider the compound CCOC(=O)c1cnn(-c2nc(-c3cccc(O)c3O)c(C#N)c(=O)n2C)c1N tested on Metaphire posthuma; state its Time.
Response given: 53.34 min

Challenge: Consider the compound Cn1c(NN)nc(-c2cccs2)c(C#N)c1=O tested on Metaphire posthuma; state its Time.
Response given: 26.13 min

Challenge: Consider the compound CSc1nc(-c2ccc(Cl)cc2)c(C#N)c(=O)n1C tested on Metaphire posthuma; state its Time.
Response given: 40.51 min

Challenge: Consider the compound CSc1nc(-c2cccs2)c(C#N)c(=O)n1C tested on Metaphire posthuma; state its Time.
Response given: 33.35 min

Challenge: Consider the compound CCOC(=O)c1cnn(-c2nc(-c3cccc(OC)c3OC)c(C#N)c(=O)n2C)c1N tested on Metaphire posthuma; state its Time.
Response given: 43.9 min

Challenge: Consider the compound CN(C)c1ccc(-c2nc(NN)n(C)c(=O)c2C#N)cc1 tested on Metaphire posthuma; state its Time.
Response given: 25.64 min

Taken from ChEMBL document CHEMBL1821590.
